test system: CAKI-1; assay: NCI tumour cell line growth inhibition, 48 h
Calls of active or inactive are those of the source. Cut-off read from the data, not from the text of the source: active = GI50 up to about 1.1 µM and inactive = higher.
assay readout: GI50

molecule: COC(=O)C(C(=O)C(=O)Nc1ccccc1C(C)=O)c1nc2ccc(Cl)cc2nc1O (stereo unspecified)
assay readout: GI50
test value: > 100 µM (inactive)
//
molecule: S=c1sc2cscc2s1
assay readout: GI50
test value: 16.8 µM (inactive)
//
molecule: O=C([O-])C[n+]1ccccc1.c1ccncc1
assay readout: GI50
test value: > 100 µM (inactive)
//
molecule: C#CCn1c(=O)c(Cl)cn(/C(=C/C(=O)OCC)C(=O)OCC)c1=O
assay readout: GI50
test value: 2.99 µM (inactive)
//
molecule: O=C(Nc1nc2ncn(CCI)c2c(=O)[nH]1)c1ccccc1
assay readout: GI50
test value: > 100 µM (inactive)
//
molecule: O=c1c(C(c2ccc3c(c2)Cc2ccccc2-3)c2c(O)oc3ccccc3c2=O)c(O)oc2ccccc12
assay readout: GI50
test value: 20.3 µM (inactive)

====

system: RXF 393; experiment: NCI tumour cell line growth inhibition, 48 h
The source made the active and inactive calls. Cut-off read from the data, not from the text of the source: active = GI50 up to about 1.1 µM and inactive = higher.
Labels: y for active, n for inactive

compound: C[C@]12CC/C(=N\OCCN3CCCCC3)C=C1CCC1C2CC[C@@]2(C)C1CC[C@]2(C)O (stereo partly specified)
tgt: RXF 393
class name: n
--
compound: Cc1ccc2c(/C=C/c3ccc(N(C)C)cc3)ccnc2c1C
tgt: RXF 393
class name: n
--
compound: CCn1cc(C(c2ccc(Cl)cc2)n2ccnc2)c2cc(Br)ccc21 (stereo unspecified)
tgt: RXF 393
class name: n
--
compound: C=CC[C@H](O)[C@@](NC(=O)OCc1ccccc1)(Sc1ccc(C)cc1)C(F)(F)F
tgt: RXF 393
class name: n
--
compound: O=C1c2ccccc2-[n+]2ccc3c([nH]c4ccccc43)c21 [FASCAPLYSIN CHLORIDE]
tgt: RXF 393
class name: y
--
compound: O=C(O)CCC1NC(/C(=C/c2ccccc2O)NC(=O)c2ccccc2)OC1=O (stereo unspecified)
tgt: RXF 393
class name: n
--
compound: C/N=N/N(C)C(=O)NC
tgt: RXF 393
class name: n
--
compound: CCCN(CCCC(NC(C)=O)C(=O)NCc1ccccc1)C(=O)N(CCCl)N=O (stereo unspecified)
tgt: RXF 393
class name: n
--
compound: CCOC(=O)C1=C(C)NC(C)=C(C(=O)OCC)C1c1ccc(Cl)cc1
tgt: RXF 393
class name: n
--
compound: Nc1nc(N)c(CCCCc2ccccc2)c(N)n1
tgt: RXF 393
class name: n
--
compound: CC(=O)OC12C(C)=C(C)C(=O)N1c1ccccc1N2C(C)=O (stereo unspecified)
tgt: RXF 393
class name: n

====

Let's look at some compounds and their measured GI50.
tested on: A498; assay: NCI tumour cell line growth inhibition, 48 h
Calls of active or inactive are those of the source. Rule as the data show it: active = GI50 up to about 1.1 µM and inactive = higher.

compound: Cc1ccc(Sc2ccccc2N)cc1
tgt: A498
GI50: 30.8 µM (inactive)
--
compound: Cc1nc2ccccc2c(=O)n1/N=C(\N=N\c1cc(Cl)ccc1Cl)c1ccc(N(C)C)cc1
tgt: A498
GI50: 60.4 µM (inactive)
--
compound: C[C@]12CCC(=O)C(O)=C1CC[C@@H]1C2CC[C@]2(C)NC(=O)CCC12 (some centres not stated)
tgt: A498
GI50: > 100 µM (inactive)
--
compound: Nc1c(Cl)ncnc1NCC1(CO)CCC1
tgt: A498
GI50: > 100 µM (inactive)
--
compound: NC(=O)C1CCN(Cc2c(Cl)c(Cl)c(CN3CCC(C(N)=O)CC3)c(Cl)c2Cl)CC1
tgt: A498
GI50: 28.3 µM (inactive)
--
compound: CCc1cccc(C)c1NC(=O)C(=O)Cc1nc2ccccc2s1
tgt: A498
GI50: > 100 µM (inactive)
--
compound: c1csc(-c2ccc(-c3cccs3)c3nsnc23)c1
tgt: A498
GI50: > 100 µM (inactive)
